Reference source: PubChem BioAssay (NCI)

- Test system: SK-OV-3 ovarian
- Assay text: NCI tumour cell line growth inhibition, 48 h
Value kind: TGI (µM)
One number for each entry, in µM.

N=C(N)c1nn(C2OC(CO)C(O)C2O)c2nc[nH]c(=O)c12 (stereo not drawn); 2.97

Working through the 3 compounds below one at a time, give TGI for each.
1. Cc1nc2sc(CCl)nn2c(=O)c1Cl
2. COc1ccc(Cn2nc(-c3cc(OC)c(OC)c(OC)c3)c3c2CCc2cnoc2-3)cc1OC
3. CCN(CC)CCOc1ccc(C(=C(C)c2ccc(Cl)cc2)c2ccc(OCCN(CC)CC)cc2)cc1

1: 28.1; 2: 33; 3: 4.11
